The measurements presented in this section are drawn from patent US11214540B2.

Assay: log P
Assay type: physicochemical
measured metric: log P

The cases that follow already have their log P on record.
COCCCC1CCN(C(C=C(C)C)CC(C)(C)c2ccc(F)cc2)CC1 (stereo not shown)    6.03
COc1ccc(C(C)(C)CC(C=C(C)C)N2CCC(C(C)C)CC2)cc1 (stereo not shown)    6.37
COCCCC1CCN(CCC(C)(C)c2ccc(F)cc2)CC1    4.61
CC(C)=CC(CC(C)(C)c1ccc(C(F)(F)F)cc1)N1CCN(C(=O)OC(C)(C)C)CC1 (stereo not shown)    6.28
CC(CC(C)(C)c1ccc(Cl)cc1)N1CCC(C)(O)CC1 (stereo not shown)    3.85

a: CC(C)=CC(CC(C)(C)c1ccccc1)N1CCC(O)(c2ccccc2)CC1 (stereo not shown)
b: COC[C@@H]1CCCN1CCC(C)(C)c1ccccc1
Ask | Could you tell me which of these two has the smaller log P figure? First: a Second: b Return value: the label identifying the chosen record.
Reply | b
(b: 3.65, a: 5.62)

----------
Experiment: log P
Format: physicochemical
measured metric: log P

The cases that follow already have their log P on record.
COC[C@H]1CCCN1C(C)CC(C)(C)c1ccc(Cl)cc1 (stereo partly drawn) [Compound 253]    4.67
CC(C)=CC(CC(C)(C)c1ccc(F)cc1)N1CCC(C)(O)CC1 (stereo not drawn)    4.4
CC(C)=CC(CC(C)(C)c1ccc(C(F)(F)F)cc1)N1CCC(CCOC2CCOC2)CC1 (stereo not drawn)    6.22

a: CC(C)=CC(CC(C)(C)c1ccc(Cl)cc1)N1CCN(C(=O)OCC(C)C)CC1 (stereo not drawn)
b: COC[C@H]1CCCN1CCC(C)(C)c1ccc(Cl)cc1
Ask | API: POST /compare with a and b ; response names the item with higher log P. Return value: the label identifying the chosen record.
Reply | a
(a: 6.2, b: 4.26)

a: CC(C)=CC(CC(C)(C)c1ccc(Cl)cc1)N1CCC(CCOC(C)C)CC1 (stereo not drawn)
b: CC(C)(CCN1CCC(O)CC1)c1ccc(Cl)cc1
Ask | API: POST /compare with a and b ; response names the item with higher log P. Return value: the label identifying the chosen record.
Reply | a
(a: 6.82, b: 3.16)

----------
Target: potassium channel hERG (Homo sapiens (Human), UniProt Q12809)
Sequence (Q12809 whole entry): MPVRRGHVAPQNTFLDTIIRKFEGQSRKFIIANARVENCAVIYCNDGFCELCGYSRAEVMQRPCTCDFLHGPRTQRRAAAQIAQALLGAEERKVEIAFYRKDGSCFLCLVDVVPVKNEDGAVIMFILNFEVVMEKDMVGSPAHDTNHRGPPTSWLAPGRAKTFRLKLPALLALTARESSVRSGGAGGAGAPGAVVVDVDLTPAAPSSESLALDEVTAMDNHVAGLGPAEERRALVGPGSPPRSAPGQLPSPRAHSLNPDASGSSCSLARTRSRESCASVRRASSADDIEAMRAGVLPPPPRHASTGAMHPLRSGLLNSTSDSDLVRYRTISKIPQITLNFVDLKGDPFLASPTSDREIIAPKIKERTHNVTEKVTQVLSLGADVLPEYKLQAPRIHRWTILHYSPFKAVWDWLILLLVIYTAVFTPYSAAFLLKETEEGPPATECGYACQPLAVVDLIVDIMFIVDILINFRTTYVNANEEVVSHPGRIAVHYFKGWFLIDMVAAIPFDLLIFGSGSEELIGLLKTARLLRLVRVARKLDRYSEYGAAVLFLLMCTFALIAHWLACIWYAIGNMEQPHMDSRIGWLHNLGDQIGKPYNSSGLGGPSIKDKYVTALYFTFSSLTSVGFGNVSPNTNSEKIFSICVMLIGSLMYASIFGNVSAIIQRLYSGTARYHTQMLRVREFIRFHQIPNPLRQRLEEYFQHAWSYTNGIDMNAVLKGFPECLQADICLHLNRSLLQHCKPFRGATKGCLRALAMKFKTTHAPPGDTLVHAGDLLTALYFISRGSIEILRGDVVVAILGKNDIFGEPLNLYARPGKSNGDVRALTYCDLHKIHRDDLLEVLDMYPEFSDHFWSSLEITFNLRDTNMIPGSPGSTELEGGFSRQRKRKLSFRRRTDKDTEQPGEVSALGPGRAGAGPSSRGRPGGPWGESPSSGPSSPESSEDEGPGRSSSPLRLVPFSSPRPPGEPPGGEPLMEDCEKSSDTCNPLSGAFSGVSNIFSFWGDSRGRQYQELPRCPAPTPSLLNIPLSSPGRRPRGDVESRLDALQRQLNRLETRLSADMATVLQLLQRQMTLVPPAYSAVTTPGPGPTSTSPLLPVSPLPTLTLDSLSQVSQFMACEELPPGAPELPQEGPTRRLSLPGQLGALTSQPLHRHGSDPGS
Test: In vitro testing for hERG inhibition
Type: biochemical
Details: in vitro toxicity potassium channel hERG
measured metric: pIC50
Please keep in mind that pIC50 is minus log10 of the molar concentration; only the number is needed.

The cases that follow already have their pIC50 on record.
COCCC1(O)CCN(C(C=C(C)C)CC(C)(C)c2ccc(F)cc2)CC1 (stereo not shown)    4.89
COCCC1(O)CCN(C(C=C(C)C)CC(C)(C)c2ccc(Cl)cc2)CC1 (stereo not shown)    5.11
CC(C)=CC(CC(C)(C)c1ccc(Cl)cc1)N1CCC(C)(C)CC1 (stereo not shown)    4.96

Here is the next item to consider.
GET /value?item= `COC1CCN(CCC(C)(C)c2ccc(Cl)cc2)CC1` &field=pIC50 returns 4.96

----------
Test: log P
Format: physicochemical
measured metric: log P

COc1cc(CCC(C)(C)N2Cc3cccc(C(=O)N4CCN(C(=O)OCc5oc(=O)oc5C)CC4)c3C2)ccc1O [Compound 309]    3.96
CC(C)=CC(CC(C)(C)c1ccccc1)N1CCC(O)CC1 (stereo not drawn) [Compound 201]    3.97
CC(C)=CC(CC(C)(C)c1ccc(Cl)cc1)N1CCC[C@H]1CO (stereo partly drawn) [Compound 237]    5.04
COC[C@@H]1CCCN1[C@@H](C=C(C)C)CC(C)(C)c1ccccc1 [Compound 249]    5.07
COc1ccc(C(C)(C)CC(NCC2CCOCC2)c2ccccc2)cc1 (stereo not drawn) [Compound 115]    4.9
CC(C)=CC(CCc1ccc(F)cc1)N1CCOCC1 (stereo not drawn) [Compound 91]    3.99

----------
Test: log P
Format: physicochemical
measured metric: log P

CC(C)=C[C@@H](CC(C)(C)c1ccc(F)cc1)N1CCC[C@@H]1CO    4.57
CC(C)=CC(CC(C)(C)c1ccc(N2CCOCC2)cc1)N1CCC(CCO)CC1 (stereo not drawn)    4.69
CC(C)=CC(CC(C)(C)c1ccc(C(F)(F)F)cc1)N1CCN(C(=O)OCC(C)C)CC1 (stereo not drawn)    6.47
COC(=O)N1CCN(C(C=C(C)C)CC(C)(C)c2ccc(Cl)cc2)CC1 (stereo not drawn)    4.95
CC(C)(CCN1CCC(O)(c2ccccc2)CC1)c1ccc(Cl)cc1    4.81
CC(C)=CC(CC(C)(C)c1ccc(C)cc1)N1CCC2(CCOCC2)CC1 (stereo not drawn)    5.78
CC(C)=CC(CC(C)(C)c1ccc(Cl)cc1)N1CCC(N2CCCCC2)CC1 (stereo not drawn)    6.14
CC(C)=CC(CC(C)(C)c1ccc(N2CCOCC2)cc1)N1CCC(O)CC1 (stereo not drawn)    3.86
COCCCC1CCN(CCC(C)(C)c2ccccc2)CC1    4.47
CC(C)=CC(CC(C)(C)c1ccc(Cl)cc1)N(C)CC1CCOCC1 (stereo not drawn)    5.68
CC(C)(CCN1CCC(C2CCOCC2)CC1)c1ccccc1    4.28
COC1CCN(C(C=C(C)C)CC(C)(C)c2ccc(C(F)(F)F)cc2)CC1 (stereo not drawn)    5.49

----------
Assay: log P
Assay type: physicochemical
measured metric: log P

COc1ccc(C(C)(C)CC(C=C(C)C)NCC2CCOCC2)cc1 (centres unmarked)    4.54
CC(C)=CC(CC(C)(C)c1ccc(C)cc1)N1CCC(C2CCOCC2)CC1 (centres unmarked)    6.22
CC(C)=CC(CC(C)(C)c1ccc(OC(C)(C)C)cc1)N1CCC(O)CC1 (centres unmarked)    4.87
CC(C)=CC(CC(C)(C)c1ccc(F)cc1)N1CCC(C)(OC(=O)NC(C)C)CC1 (centres unmarked)    5.5
CC(C)=CC(CC(C)(C)c1ccc(C(F)(F)F)cc1)N1CCC(N2CCCC2)CC1 (centres unmarked)    5.97
